Attribution: PubChem BioAssay (NCATS)

Test: Quantitative highthroughput screen to assess conditional lethalithy of P12 Ichikawa cells grown in Human Plasma-Like Medium with dialyzed fetal bovine serum (HPLM+ds) (AID 1963879); further: nearly all actives have a fitted effect of over 35% in size
Details: ATP luminescence, 48 h; viability; series mostly up to 45.8 µM
Inconclusive results are not listed. Activity calls are given as the source filed them. The call rests on the fitted dose curve; in most records, active means well fitted cell-killing curve with a large enough effect; inconclusive means small, poorly fitted or top-dose-only effect; inactive means flat fitted curve, though single readings scatter.
Outcome codes: active, inactive

# smiles_string, cat
measured = [
    ("N#Cc1ccc(C(c2ccc(C#N)cc2)n2cncn2)cc1", "inactive"),
    ("C=CCc1cccc(C=NNC(=O)CN2CCN(Cc3ccccc3)CC2)c1O", "active"),
    ("Clc1cccc(-n2nnnc2NCc2ccccc2Oc2ccccn2)c1Cl", "inactive"),
    ("CNC(=O)c1ccc(Nc2ncc(C(F)(F)F)c(NCc3nccnc3N(C)S(C)(=O)=O)n2)cc1", "inactive"),
    ("Oc1ccc(C2=Cc3ccc(O)cc3OC2)cc1", "active"),
    ("COC[C@@H](c1ccc(C(F)(F)F)cc1)N1CCN(C2(C)CCN(C(=O)c3c(C)ncnc3C)CC2)C[C@H]1C", "inactive"),
]
